studySystem: mouse constitutive androstane receptor (mCAR, NR1I3) (Mus musculus, UniProt O35627)
experimentalProtocol: Inhibition of mouse constitutive androstane receptor (mCAR) activity at 10 uM was determined as percent remaining activity
experimentalContext: read-out: Remaining activity
Assign labels as follows, please: Met for activity at 10 µM below 60%; Not met for activity at 10 µM equal to or exceeding 60%.

// known answers, use as guide
compound	studySystem	category
C[C@]12C=CC(=O)C=C1CC[C@@H]1[C@@H]2CC[C@]2(C)C(=O)CC[C@@H]12	mouse constitutive androstane receptor (mCAR, NR1I3) (Mus musculus, UniProt O35627)	Not met
CC12CCC3C(CCC4=CC(=O)[C@H](O)CC43C)C1CCC2=O (some centres undefined)	mouse constitutive androstane receptor (mCAR, NR1I3) (Mus musculus, UniProt O35627)	Met
C[C@]12CCC(=O)C=C1CC[C@@H]1[C@@H]2CC[C@]2(C)C(=O)CC[C@@H]12	mouse constitutive androstane receptor (mCAR, NR1I3) (Mus musculus, UniProt O35627)	Met
CC12C=CCC1C1CC[C@H]3CC(=O)CCC3(C)C1CC2 (some centres undefined)	mouse constitutive androstane receptor (mCAR, NR1I3) (Mus musculus, UniProt O35627)	Met
C[C@]12CCC(=O)C[C@@H]1CC[C@@H]1[C@@H]2CC[C@]2(C)[C@@H](O)CC[C@@H]12	mouse constitutive androstane receptor (mCAR, NR1I3) (Mus musculus, UniProt O35627)	Not met

Request: Lab log: compare recorded activity at 10 µM with 60%; is it strictly lower for CC12CCC3C(CCC4=CC(=O)CCC43C)C1C[C@@H](O)C2=O (some centres undefined) ?
Result: Not met

Request: Lab log: compare recorded activity at 10 µM with 60%; is it strictly lower for CC12CCC3C(C1CCC2=O)[C@H](O)CC1=CC(=O)CCC13C (some centres undefined) ?
Result: Not met

Request: Lab log: compare recorded activity at 10 µM with 60%; is it strictly lower for CC12CC[C@@H](O)C[C@@H]1CC[C@@H]1[C@@H]2CCC2(C)[C@@H](O)CC[C@@H]12 (some centres undefined) ?
Result: Not met

Request: Lab log: compare recorded activity at 10 µM with 60%; is it strictly lower for CC12CCC(=O)C[C@@H]1CC[C@@H]1[C@@H]2CCC2(C)[C@@H](O)CC[C@@H]12 (some centres undefined) ?
Result: Met

====

Please go through the items and note down their pIC50.
studySystem: Nuclear receptor subfamily 1 group I member 3 (Mus musculus, UniProt O35627)
Sequence (O35627 whole entry): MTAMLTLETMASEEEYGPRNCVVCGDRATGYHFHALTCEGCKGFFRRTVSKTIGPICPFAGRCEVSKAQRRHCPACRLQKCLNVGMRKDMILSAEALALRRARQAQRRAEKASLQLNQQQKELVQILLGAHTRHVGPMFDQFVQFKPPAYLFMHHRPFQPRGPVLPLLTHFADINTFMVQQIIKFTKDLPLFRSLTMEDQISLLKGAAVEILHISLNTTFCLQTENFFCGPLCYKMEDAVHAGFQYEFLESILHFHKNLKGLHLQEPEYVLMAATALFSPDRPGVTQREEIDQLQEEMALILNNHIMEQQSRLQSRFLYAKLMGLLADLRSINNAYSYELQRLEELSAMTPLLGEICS
experimentalProtocol: Inhibitory concentration against mouse constitutive androstane receptor (mCAR) activity was determined as pIC50
Answers are plain numbers, as −log10 of the molar value.

compound	readout	reportedResult
CC12C=CCC1C1CCC3=CC(=O)CCC3(C)C1CC2 (stereo not drawn)	pIC50	6.10
CC12CCC(=O)C=C1CCC1C2CCC2(C)C1CC[C@@H]2C(=O)O (stereo partly drawn)	pIC50	4.40

// next entry
Request: Could you share which pIC50 value was measured for CC12CC[C@H]3[C@@H](CC[C@H]4CC(=O)CCC43C)[C@@H]1CCC2=O (stereo partly drawn) ?
Result: 5.30
